- Test system: HIV-1/LAI-derived strain I031L, A062A/V, L074L/V, Y181C, G190E, T386A
- Test description: Antiviral activity in MT4 cells, low MOI strain selected at 15.000 μM, day 59
- Type: cell-based
- Condition notes: Human immunodeficiency virus 1, MT4, Comp. 1 15.000 μM, read-out: median(EC50 (μM))
Collected EC50 values appear next to each entry.

// query EC50 value for entry `Cc1cc(C#N)cc(C)c1Oc1nc(Nc2ccc(C#N)cc2)nc(N)c1Br`
> 10 µM

// query EC50 value for entry `Cc1ccnc2c1NC(=O)c1cccnc1N2C1CC1`
> 10 µM

// query EC50 value for entry `O=C1Nc2ccc(Cl)cc2[C@@](C#CC2CC2)(C(F)(F)F)O1`
> 10 µM
